Below: a set of entries, each annotated with reported EC50.
- System: Human alphaherpesvirus 1
- measurement-notes: Inhibitory activity against herpes simplex virus type 1 (HSV-1) KOS strain
- Type: functional, organism-based

>  <compound>
CC(C)CCCCCOP(=O)(COCCn1cnc2nc(N)nc(Cl)c21)OCCCCCC(C)C

>  <test-target>
Human alphaherpesvirus 1

>  <EC50>
> 16 µg/mL

$$$$
>  <compound>
Nc1nc(=O)n(CCOCP(=O)(O)O)cc1Br

>  <test-target>
Human alphaherpesvirus 1

>  <EC50>
20 µg/mL

$$$$
>  <compound>
Nc1nc(N)c2ncn(CCOCP(=O)(O)O)c2n1 [PMEDAP]

>  <test-target>
Human alphaherpesvirus 1

>  <EC50>
2 µg/mL

$$$$
>  <compound>
Nc1nc(S)c2c(ncn2CCOCP(=O)(O)O)n1

>  <test-target>
Human alphaherpesvirus 1

>  <EC50>
> 100 µg/mL

$$$$
>  <compound>
Nc1nc(O)c2nc(Br)n(CCOCP(=O)(O)O)c2n1

>  <test-target>
Human alphaherpesvirus 1

>  <EC50>
240 µg/mL

$$$$
>  <compound>
Nc1nc(O)nc2c1ncn2CCOCP(=O)(O)O

>  <test-target>
Human alphaherpesvirus 1

>  <EC50>
> 400 µg/mL

$$$$
>  <compound>
CC(C)OP(=O)(COCCn1cnc2c(N)ncnc21)OC(C)C

>  <test-target>
Human alphaherpesvirus 1

>  <EC50>
> 400 µg/mL

$$$$
>  <compound>
Nc1nc(Cl)c2ncn(CCOCP(=O)(O)O)c2n1

>  <test-target>
Human alphaherpesvirus 1

>  <EC50>
0.23 µg/mL

$$$$
>  <compound>
Nc1nc(F)nc2c1ncn2CCOCP(=O)(O)O

>  <test-target>
Human alphaherpesvirus 1

>  <EC50>
70 µg/mL

$$$$
>  <compound>
CC(C)OP(=O)(COCCn1c(Br)nc2c(N)nc(N)nc21)OC(C)C

>  <test-target>
Human alphaherpesvirus 1

>  <EC50>
> 400 µg/mL

$$$$
>  <compound>
CC(C)OP(=O)(O)COCCn1cnc2c(O)nc(N)nc21

>  <test-target>
Human alphaherpesvirus 1

>  <EC50>
5.7 µg/mL

$$$$
>  <compound>
Nc1cc(N)c2ncn(CCOCP(=O)(O)O)c2n1

>  <test-target>
Human alphaherpesvirus 1

>  <EC50>
300 µg/mL

$$$$
>  <compound>
Nc1cc2c(ncn2CCOCP(=O)(O)O)c(N)n1

>  <test-target>
Human alphaherpesvirus 1

>  <EC50>
150 µg/mL

$$$$
>  <compound>
Nc1nc(N)c2nc(Br)n(CCOCP(=O)(O)O)c2n1

>  <test-target>
Human alphaherpesvirus 1

>  <EC50>
20 µg/mL

$$$$
>  <compound>
CC(C)OP(=O)(O)COCCn1cnc2c(N)ncnc21

>  <test-target>
Human alphaherpesvirus 1

>  <EC50>
200 µg/mL

$$$$
>  <compound>
Nc1ccn(CCOCP(=O)(O)O)c(=O)n1

>  <test-target>
Human alphaherpesvirus 1

>  <EC50>
300 µg/mL

$$$$
>  <compound>
CC(C)OP(=O)(COCCn1cnc2c(N)nc(N)nc21)OC(C)C

>  <test-target>
Human alphaherpesvirus 1

>  <EC50>
240 µg/mL

$$$$
>  <compound>
Nc1cc2c(ncn2CCOCP(=O)(O)O)c(O)n1

>  <test-target>
Human alphaherpesvirus 1

>  <EC50>
4.5 µg/mL

$$$$
>  <compound>
CC(C)CCCCCOP(=O)(COCCn1cnc2c(N)ncnc21)OCCCCCC(C)C

>  <test-target>
Human alphaherpesvirus 1

>  <EC50>
> 3.2 µg/mL

$$$$
>  <compound>
CC(C)CCCCCOP(=O)(COCCn1cnc2nc(N)nc(O)c21)OCCCCCC(C)C

>  <test-target>
Human alphaherpesvirus 1

>  <EC50>
> 16 µg/mL

$$$$
>  <compound>
CCOP(=O)(O)COCCn1cnc2c(O)nc(N)nc21

>  <test-target>
Human alphaherpesvirus 1

>  <EC50>
2 µg/mL

$$$$
>  <compound>
Nc1ccnc2c1ncn2CCOCP(=O)(O)O

>  <test-target>
Human alphaherpesvirus 1

>  <EC50>
> 400 µg/mL

$$$$
>  <compound>
Nc1nc(=O)ccn1CCOCP(=O)(O)O

>  <test-target>
Human alphaherpesvirus 1

>  <EC50>
> 400 µg/mL

$$$$
>  <compound>
CC(C)OP(=O)(COCCn1c(Br)nc2c(O)nc(N)nc21)OC(C)C

>  <test-target>
Human alphaherpesvirus 1

>  <EC50>
> 400 µg/mL

$$$$
>  <compound>
CC(C)CCCCCOP(=O)(COCCn1cnc2c(Cl)nc(N)nc21)OCCCCCC(C)C

>  <test-target>
Human alphaherpesvirus 1

>  <EC50>
> 16 µg/mL

$$$$
>  <compound>
Nc1nccc(OCCOCP(=O)(O)O)n1

>  <test-target>
Human alphaherpesvirus 1

>  <EC50>
> 200 µg/mL

$$$$
>  <compound>
Nc1ncc2ncn(CCOCP(=O)(O)O)c2n1

>  <test-target>
Human alphaherpesvirus 1

>  <EC50>
70 µg/mL

$$$$
>  <compound>
Nc1nnc(N)c2c1ncn2CCOCP(=O)(O)O

>  <test-target>
Human alphaherpesvirus 1

>  <EC50>
> 200 µg/mL

$$$$
>  <compound>
Nc1ncnc2c1ncn2CCOCP(=O)(O)O [ADEFOVIR]

>  <test-target>
Human alphaherpesvirus 1

>  <EC50>
3.6 µg/mL

$$$$
>  <compound>
NC1=NC2N=CC=NC2C(=O)N1CCOCP(=O)(O)O (centres undefined)

>  <test-target>
Human alphaherpesvirus 1

>  <EC50>
70 µg/mL

$$$$
>  <compound>
Nc1ncnc2c1ccn2CCOCP(=O)(O)O

>  <test-target>
Human alphaherpesvirus 1

>  <EC50>
200 µg/mL

$$$$
>  <compound>
CC(C)CCCCCOP(=O)(COCCn1cnc2c(N)nc(N)nc21)OCCCCCC(C)C

>  <test-target>
Human alphaherpesvirus 1

>  <EC50>
> 16 µg/mL

$$$$
>  <compound>
Nc1cccc2c1ncn2CCOCP(=O)(O)O

>  <test-target>
Human alphaherpesvirus 1

>  <EC50>
> 400 µg/mL

$$$$
>  <compound>
CC(C)OP(=O)(O)COCCn1cnc2c(N)nc(N)nc21

>  <test-target>
Human alphaherpesvirus 1

>  <EC50>
150 µg/mL

$$$$
>  <compound>
Nc1nc(O)c2c(ncn2CCOCP(=O)(O)O)n1

>  <test-target>
Human alphaherpesvirus 1

>  <EC50>
300 µg/mL

$$$$
>  <compound>
CC(C)CCCCCOP(=O)(COCCn1cnc2c(O)nc(N)nc21)OCCCCCC(C)C

>  <test-target>
Human alphaherpesvirus 1

>  <EC50>
> 80 µg/mL

$$$$
>  <compound>
Nc1cc2ncn(CCOCP(=O)(O)O)c2c(O)n1

>  <test-target>
Human alphaherpesvirus 1

>  <EC50>
> 200 µg/mL

$$$$
>  <compound>
CC(C)CCCCCOP(=O)(O)COCCn1cnc2c(O)nc(N)nc21

>  <test-target>
Human alphaherpesvirus 1

>  <EC50>
240 µg/mL

$$$$
>  <compound>
CC(C)OP(=O)(COCCn1cnc2c(O)nc(N)nc21)OC(C)C

>  <test-target>
Human alphaherpesvirus 1

>  <EC50>
240 µg/mL

$$$$
>  <compound>
CC(C)OP(=O)(COCCn1cnc2c(S)ncnc21)OC(C)C

>  <test-target>
Human alphaherpesvirus 1

>  <EC50>
> 400 µg/mL

$$$$
>  <compound>
O=P(O)(O)COCCn1cnc2c(S)ncnc21

>  <test-target>
Human alphaherpesvirus 1

>  <EC50>
> 400 µg/mL

$$$$
>  <compound>
Cc1nc(N)nc2c1ncn2CCOCP(=O)(O)O

>  <test-target>
Human alphaherpesvirus 1

>  <EC50>
> 200 µg/mL

$$$$
>  <compound>
CC(C)OP(=O)(COCCn1cnc2nc(N)nc(O)c21)OC(C)C

>  <test-target>
Human alphaherpesvirus 1

>  <EC50>
> 200 µg/mL

$$$$
>  <compound>
CCOP(=O)(O)COCCn1cnc2c(N)nc(N)nc21

>  <test-target>
Human alphaherpesvirus 1

>  <EC50>
300 µg/mL

$$$$

FYI, the data here is from ChEMBL document CHEMBL1132160.
